A collection of compounds and their measured TGI
Tested on: A549 NSCLC
TEST: NCI tumour cell line growth inhibition, 48 h
MEASUREMENT_TYPE: TGI

INSERT INTO results (compound, system_under_test, measurement_type, reported) VALUES
  ('Cc1nc(N)sc1N=Nc1ccccc1Br', 'A549 NSCLC', 'TGI', '> 100 µM'),
  ('CCOC(=O)N[C@H]1CCc2cc(OC)c(OC)c(OC)c2-c2ccc(SC)c(=O)cc21', 'A549 NSCLC', 'TGI', '> 100 µM'),
  ('Cc1ccccc1C(=O)c1cc(O)ccc1O', 'A549 NSCLC', 'TGI', '> 100 µM'),
  ('CCN1CCN(c2cc(C)c3cc(NC(=O)c4ccc(OC)c(OC)c4)ccc3n2)CC1', 'A549 NSCLC', 'TGI', '> 100 µM'),
  ('COc1cc(O)c2c(c1)C(=O)c1cc3c(c(O)c1C2=O)C(OC1OC(C)C(OC)C(O)C1OC)C(OC)C(C)(O)C3=O (stereo not given)', 'A549 NSCLC', 'TGI', '16.1 µM');

---

Entries annotated with measured TGI
System: MCF7 breast
TEST: NCI tumour cell line growth inhibition, 48 h
MEASUREMENT_TYPE: TGI

INSERT INTO measurements (compound, system_under_test, measurement_type, reported) VALUES
  ('CC(=O)NC1C(OCc2ccccc2)OC(CO)C(O)C1OCC(=O)N[C@@H](C)C(=O)N[C@H](CCC(=O)NCCCNc1c2ccccc2nc2cccc([N+](=O)[O-])c12)C(N)=O (stereo partly drawn)', 'MCF7 breast', 'TGI', '2.42 µM'),
  ('COC(=O)c1c2c(c(C)[n+]([O-])c1C)C(=O)C=C(NCc1ccc(F)cc1)C2=O', 'MCF7 breast', 'TGI', '1.04 µM'),
  ('O=C(CCn1ccnc1[N+](=O)[O-])NCCCn1ccnc1[N+](=O)[O-]', 'MCF7 breast', 'TGI', '> 100 µM'),
  ('CN1C(=O)c2ccccc2NC(=O)C12O[C@@H]2c1ccccc1 (stereo partly drawn)', 'MCF7 breast', 'TGI', '> 100 µM'),
  ('NS(=O)(=O)c1ccc(N=Nc2c(O)c(C(=O)O)cc3ccccc23)cc1', 'MCF7 breast', 'TGI', '> 100 µM'),
  ('C/C(=N\N=C1/C(=O)OC(c2ccccc2)=C1C(=O)c1ccccc1)c1ccc([N+](=O)[O-])cc1', 'MCF7 breast', 'TGI', '> 100 µM'),
  ('O=C1OC(C2Cc3ccc4ccccc4c3C2=O)c2ccccc21 (stereo not drawn)', 'MCF7 breast', 'TGI', '> 100 µM'),
  ('CC(=O)ON1CCCC(P(=O)(OCCSC(=O)C(C)(C)C)OCCSC(=O)C(C)(C)C)C1=O (stereo not drawn)', 'MCF7 breast', 'TGI', '47.5 µM');

---

System: SW-620 colon
TEST: NCI tumour cell line growth inhibition, 48 h
Below, each entry is listed with its recorded TGI.
MEASUREMENT_TYPE: TGI

INSERT INTO assay_data (molecule, system_under_test, reported) VALUES
  ('Cn1c(SCc2ccc(F)cc2)nnc1C12CC3CC(CC(C3)C1)C2', 'SW-620 colon', '> 100 µM'),
  ('C/C(C[n+]1ccccc1)=N\N=C(N)N', 'SW-620 colon', '> 100 µM'),
  ('S=c1[nH]c(=S)c2cc3ccccc3nc2[nH]1', 'SW-620 colon', '> 100 µM'),
  ('O=C(O)C(Cl)(Cl)Cl', 'SW-620 colon', '> 100 µM'),
  ('CC(C)SC(=S)Sc1c(Cl)c(Cl)nc(Cl)c1Cl', 'SW-620 colon', '15.9 µM'),
  ('Cc1c2n(c(=O)[nH]c1=O)C1OC(CO)C(N=[N+]=[N-])C1O2 (stereo unspecified)', 'SW-620 colon', '> 100 µM');

---

Tested on: SNB-75 CNS
TEST: NCI tumour cell line growth inhibition, 48 h
MEASUREMENT_TYPE: TGI

INSERT INTO measurements (compound_string, system_under_test, reported) VALUES
  ('CN(C)C(=S)/N=c1\sn(C)/c(=N\C(=S)N(C)C)n1C', 'SNB-75 CNS', '> 100 µM'),
  ('O=c1oc2ccc(-c3ccc(F)cc3F)cc2c(=O)n1-c1cccc(C(F)(F)F)c1', 'SNB-75 CNS', '3.78 µM'),
  ('Cc1nc(C)c(N2CCN([N+](=O)[O-])CC2)c(=O)[nH]1', 'SNB-75 CNS', '0.611 µM'),
  ('O=C(Nc1cccc(C(F)(F)F)c1)c1ccc(NC2=C(Cl)C(=O)N(Cc3ccc(Cl)cc3Cl)C2=O)cc1', 'SNB-75 CNS', '33.3 µM'),
  ('COC(=O)/C=C\C(C#N)(C#N)N=Cc1ccc(C)cc1', 'SNB-75 CNS', '31 µM');

---

GI50 values for the molecules below.
System: SN12C renal
TEST: NCI tumour cell line growth inhibition, 48 h
MEASUREMENT_TYPE: GI50

INSERT INTO results (molecule, reported) VALUES
  ('CN(C)CC[C@H](CSc1ccccc1)Nc1ccc(S(=O)(=O)NC(=O)c2ccc(N3CCN(Cc4ccccc4-c4ccc(Cl)cc4)CC3)cc2)cc1[N+](=O)[O-]', '3.56 µM'),
  ('CC(NCCC(c1ccccc1)c1ccccc1)c1ccccc1 (stereo unspecified)', '2.42 µM'),
  ('COc1cc(Cl)cc(-c2nn(-c3cccc(NC(=O)c4ccc(N5CCOCC5)c(C(F)(F)F)c4)c3)cc2-c2ccncc2)c1', '> 100 µM'),
  ('N#Cc1nn(-c2cc(=O)[nH]c3ccc(Cl)cc23)c(N)c1C#N', '> 100 µM'),
  ('COc1ccc2nc3ccccc3c(NCc3ccc(F)cc3)c2c1', '1.83 µM'),
  ('COC(=O)c1ccc2c(c1)C(=O)c1c-2n(CCCN=[N+]=[N-])c(=O)c2cc(OC)c(OC)cc12', '> 100 µM');

---

Tested on: SF-295 CNS
TEST: NCI tumour cell line growth inhibition, 48 h
MEASUREMENT_TYPE: TGI

INSERT INTO results (molecule, measurement_type, reported) VALUES
  ('C[C@@H]1C[C@@H]([C@@H](CC2CC(=O)NC(=O)C2)OC(=O)CC(=O)c2ccccc2)C(=O)[C@@H](C)C1', 'TGI', '12.3 µM'),
  ('CC1OC(c2ccc3c(OCc4ccccc4)cccc3c2O)CC(OCc2ccccc2)[C@H]1OCc1ccccc1 (some centres not stated)', 'TGI', '> 10 µM'),
  ('O=C(O)C(Cl)(Cl)Cl', 'TGI', '> 100 µM'),
  ('NC1CCN(Cc2ccccc2)CC1', 'TGI', '> 100 µM'),
  ('O=C(O)CN1CCN2CCCCCN(CC1)CCN(CC(=O)O)CC2', 'TGI', '> 100 µM'),
  ('COC(=O)C1CCCC2(C1)OCCO2 (configuration not stated)', 'TGI', '> 100 µM'),
  ('COC(=O)/C(C#N)=C1\N=NNN1c1ccc(OC)cc1', 'TGI', '> 100 µM'),
  ('CCN1CN(c2ccccc2)C2(CCN(CC3COc4ccccc4O3)CC2)C1=O (configuration not stated)', 'TGI', '> 100 µM'),
  ('O=C1OC(C2Cc3ccc4ccccc4c3C2=O)c2ccccc21 (configuration not stated)', 'TGI', '> 100 µM'),
  ('CCOC(=O)c1ccc(/C(C)=N/NC(N)=S)cc1', 'TGI', '> 100 µM'),
  ('COC1C(OC(=S)Nc2ccccc2)c2ccccc2N1C(C)=O (configuration not stated)', 'TGI', '> 100 µM'),
  ('COc1cccc(N2C(Cl)C(=O)C2c2c[nH]c3ccccc23)c1 (configuration not stated)', 'TGI', '> 100 µM'),
  ('CNCCOC(=O)/C=C1\CC[C@H]2[C@@H]([C@@H](O)C(=O)[C@@H]3[C@]2(C)CC[C@H](O)[C@]3(C)C(=O)OC)[C@H]1C', 'TGI', '0.951 µM'),
  ('CSc1cc(-c2cccs2)sc1-c1cc(SC)c(-c2sc(-c3sc(-c4cccs4)cc3SC)cc2SC)s1', 'TGI', '> 100 µM'),
  ('NC(N)=NCCCC(=O)O', 'TGI', '> 100 µM'),
  ('O=C1CCC2(c3ccc(Cl)cc3)Nc3cc(Cl)ccc3N12 (configuration not stated)', 'TGI', '21.4 µM'),
  ('O=C(/C=C/c1ccc[nH]1)c1ccc(-n2ccc(C(F)(F)F)n2)cc1', 'TGI', '> 100 µM'),
  ('Cc1ccc(C2=CC(=O)OC(C[P+](c3ccccc3)(c3ccccc3)c3ccccc3)(c3ccccc3)O2)cc1 (configuration not stated)', 'TGI', '45.5 µM'),
  ('Cc1nnc(Nc2ccc(NC(=O)Nc3ccc(Cl)cc3)cc2)c2ccccc12', 'TGI', '4.21 µM'),
  ('CCN(CC)CCNc1nc(N)c(C#N)c(C#N)c1C#N', 'TGI', '> 10 µM'),
  ('CC(C)SC(=S)Sc1c(Cl)c(Cl)nc(Cl)c1Cl', 'TGI', '30.5 µM'),
  ('COC(=O)[C@]12CC[C@@H](C)[C@H](C)[C@@H]1C1=CC[C@@H]3[C@@]4(C)C[C@@H](O)[C@H](O)[C@@](C)(CO)C4=CC[C@@]3(C)[C@]1(C)CC2', 'TGI', '33.1 µM'),
  ('CC(C)c1cc2c(c(O)c1O)[C@@]1(C(=O)O)CCCC(C)(C)[C@@H]1CC2', 'TGI', '68.5 µM'),
  ('N#C/C(=C\c1ccc2ccccc2c1)C(=O)c1ccccc1', 'TGI', '> 100 µM'),
  ('COc1cc(C(=O)N2CCN(C(=O)c3cc(OC)c(OC)c(OC)c3)C2=S)cc(OC)c1OC', 'TGI', '43.7 µM'),
  ('Cc1nc(Nc2ccc(Cl)cc2)sc1C(=O)NNC(=S)NN', 'TGI', '34.1 µM'),
  ('O=c1c(F)cn(Cc2ccc(C34CC5CC(CC(C5)C3)C4)c(O)c2)c(=O)n1Cc1ccc(C23CC4CC(CC(C4)C2)C3)c(O)c1', 'TGI', '32.5 µM'),
  ('Cc1ccc(C)c(NC(=O)c2cccc([N+](=O)[O-])c2O)c1', 'TGI', '41.5 µM'),
  ('Nc1ncc(-c2ccc3ncnc(Nc4ccc(F)c(Cl)c4)c3c2)cn1', 'TGI', '11 µM'),
  ('CCOc1cc(/C=C2/C(C)=NN(c3cccc(Cl)c3)/C2=N/c2nc3ccccc3s2)ccc1O', 'TGI', '93.8 µM'),
  ('CN(C)C(=S)/N=c1\sn(C)/c(=N\C(=S)N(C)C)n1C', 'TGI', '> 100 µM'),
  ('N#CC(C(=O)/C(=N\NC(N)=O)C(C#N)c1ccc(Cl)cc1)c1ccc(Cl)cc1 (configuration not stated)', 'TGI', '> 100 µM'),
  ('COc1cc2c(cc1OC)C(C(c1ccccc1)c1ccccc1)N(C)CC2 (configuration not stated)', 'TGI', '> 100 µM'),
  ('COc1ccc(OCC(=O)O)c2c1CCCC2=O', 'TGI', '> 100 µM'),
  ('COc1ccc(N2C(=O)CC(=O)N(NC(=O)C(C)Oc3ccccc3C)C2=S)cc1 (configuration not stated)', 'TGI', '> 100 µM'),
  ('CCOC(=O)c1cccc(N=Nc2nc[nH]c2/C=C/C(=O)OC)c1', 'TGI', '> 100 µM'),
  ('COc1cc(OC)cc(C(=O)CC(=O)c2cc(OC)cc(OC)c2)c1', 'TGI', '> 100 µM'),
  ('O=C1OCC/C1=N/O', 'TGI', '> 100 µM'),
  ('c1ccc2c(OCCSCCCCCCCCCCSCCOc3cccc4ccccc34)cccc2c1', 'TGI', '> 100 µM'),
  ('CC12CCC(=O)C[C@H]1CCC(OC=O)C2Br (some centres not stated)', 'TGI', '> 100 µM'),
  ('N=c1c2c(-c3ccccc3)c(-c3ccccc3)n(Cc3ccccc3)c2ncn1C1CCC(O)CC1 (configuration not stated)', 'TGI', '1.45 µM'),
  ('C=CCn1c(=O)c(C(=O)Nc2nc(C34CC5CC(CC(C5)C3)C4)cs2)c(O)c2ccccc21', 'TGI', '40.7 µM');

# credit: PubChem BioAssay (NCI)
